Origin of values: patent US20210046071A1

Experiment: Pharmacokinetic studies in human, Compound I in plasma by LC/MS/MS
Format: in vivo
Assay Context: human, plasma, intravenous, Groups 1-7, 50 to 475 mg/m^2, Day 1, range of group means
Endpoint Name: Tmax

q: For the compound shown here, Cc1cnc(CNC(=O)c2c(=O)c3ccc(N4CCCN(C)CC4)nc3n3c2sc2ccccc23)cn1 [Compound I] , give the reported Tmax.
a: 30.5 to 71.4 min

* * *

Experiment: Pharmacokinetic studies in human, Compound I in plasma by LC/MS/MS
Assay type: in vivo
Assay Context: human, plasma, iv, 50 mg/m2, Group 1, 50 mg/m^2 IV, Day 1, mean, n = 4; read-out: AUC∞
Endpoint Name: AUC(0-inf)

q: For the molecule shown here, Cc1cnc(CNC(=O)c2c(=O)c3ccc(N4CCCN(C)CC4)nc3n3c2sc2ccccc23)cn1 , give the reported AUC(0-inf).
a: 16300 ng·h/mL
